- Test system: Caco-2
- ASSAY METHOD TEXT: Cytotoxicity against human Caco-2 cells assessed as cell viability
- Type: functional, cell-based
ASSAY READOUT: IC50 (µM)
Please reply with the bare figure in µM and do not write the unit itself.

Task: I would be grateful if you could share the reported IC50 for C[C@@H]1CC[C@]2(C(=O)O)CC[C@]3(C)C(=CC[C@@H]4[C@@]5(C)C[C@@H](O)[C@@H](O)C(C)(C)[C@@H]5CC[C@]43C)[C@@H]2[C@]1(C)O .
Result: 104
